MEASURED_ON: Alpha-2A adrenergic receptor (Homo sapiens)
Sequence (P08913 whole entry): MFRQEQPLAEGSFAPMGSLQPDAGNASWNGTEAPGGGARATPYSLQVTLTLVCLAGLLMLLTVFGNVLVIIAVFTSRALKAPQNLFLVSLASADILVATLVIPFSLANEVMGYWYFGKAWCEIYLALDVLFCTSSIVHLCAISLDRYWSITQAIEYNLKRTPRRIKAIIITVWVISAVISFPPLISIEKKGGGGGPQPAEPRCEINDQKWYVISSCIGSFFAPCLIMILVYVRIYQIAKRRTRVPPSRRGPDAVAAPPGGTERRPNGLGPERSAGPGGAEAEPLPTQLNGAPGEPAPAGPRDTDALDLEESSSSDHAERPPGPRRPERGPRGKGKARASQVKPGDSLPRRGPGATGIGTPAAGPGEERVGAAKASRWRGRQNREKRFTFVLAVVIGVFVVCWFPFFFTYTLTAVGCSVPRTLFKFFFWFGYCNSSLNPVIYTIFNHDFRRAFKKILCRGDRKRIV
Type: cell membranes, Sf9, Membrane
EXPERIMENTAL_CONTEXT: read-out: Ki
VALUE_TYPE: Ki (µM)
One number for each entry, in µM.

CCN1CCCC1CNC(=O)c1cc(S(N)(=O)=O)ccc1OC (centres undefined) [SULPIRIDE]; 0.757
CC(=O)Nc1ccc2c(c1)Cc1ccccc1-2; 7.9
CC1(COc2ccc(CC3SC(=O)NC3=O)cc2)CCCCC1 (centres undefined); 6.21

// moving on: another record for Ki
query: # input molecule: COc1ccccc1OCCNCC(O)COc1cccc2[nH]c3ccccc3c12 (centres undefined) ; wanted: its Ki
result: 0.04

---

TEST: DRUGMATRIX: Glutamate, AMPA radioligand binding (ligand: [3H] AMPA)
Type: cell membranes, Rattus norvegicus, Wistar, Cerebral cortex, Membrane
EXPERIMENTAL_CONTEXT: Not Active = under 50% inhibition at 10 µM
VALUE_TYPE: Ki

Would you please look over these solved cases?
LEAD(IV) ACETATE; Not Active
COPPER(II) OXIDE; Not Active
POVIDONE; Not Active
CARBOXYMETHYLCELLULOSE; Not Active

// moving on: another record for Ki
query: # input substance: CHROMIC CHLORIDE ; wanted: its Ki
result: Not Active

---

Answer each item with its documented pKi.
MEASURED_ON: Alpha-2C adrenergic receptor (Homo sapiens, UniProt P18825)
Sequence (P18825 whole entry): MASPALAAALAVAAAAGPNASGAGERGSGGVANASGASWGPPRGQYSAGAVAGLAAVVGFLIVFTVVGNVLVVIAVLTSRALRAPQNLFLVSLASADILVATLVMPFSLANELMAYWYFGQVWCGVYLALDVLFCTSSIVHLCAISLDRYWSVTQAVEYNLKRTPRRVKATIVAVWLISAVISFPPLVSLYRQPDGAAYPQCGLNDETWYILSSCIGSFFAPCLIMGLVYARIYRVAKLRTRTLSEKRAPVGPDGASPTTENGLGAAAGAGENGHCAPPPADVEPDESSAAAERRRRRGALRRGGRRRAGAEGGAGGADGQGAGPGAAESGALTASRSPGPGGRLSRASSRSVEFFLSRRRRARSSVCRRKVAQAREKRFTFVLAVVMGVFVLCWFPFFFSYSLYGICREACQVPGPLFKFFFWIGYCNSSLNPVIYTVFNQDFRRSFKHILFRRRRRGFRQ
TEST: DRUGMATRIX: Adrenergic Alpha-2C radioligand binding (ligand: [3H] MK-912)
Type: cell membranes, Sf9, Membrane
EXPERIMENTAL_CONTEXT: read-out: Ki
One number for each entry, as −log10 of the molar value.

Clc1cc(Cl)c(OCC#CI)cc1Cl [HALOPROGIN]; 6.23
CN1C[C@H](CNC(=O)OCc2ccccc2)C[C@@H]2c3cccc4c3c(cn4C)C[C@H]21 [METERGOLINE]; 7.57
COc1ccccc1OCCNCC(O)COc1cccc2[nH]c3ccccc3c12 (stereo unspecified) [CARVEDILOL]; 7.89
c1ccc2sc(SSc3nc4ccccc4s3)nc2c1 [BENZOTHIAZYL DISULFIDE]; 6.62
CC[C@H](C)[C@@H](CO[C@@H](Cc1ccccc1)C(=O)N[C@@H](CCS(C)(=O)=O)C(=O)OC(C)C)NC[C@@H](N)CS; 6.34

query: # input compound: CC(CN1c2ccccc2Sc2ccccc21)N(C)C (stereo unspecified) [PROMETHAZINE] ; wanted: its pKi
result: 6.45

---

TEST: DRUGMATRIX: Nicotinic Acetylcholine radioligand binding (ligand: [125I] Epibatidine)
Type: cell membranes, Membrane
EXPERIMENTAL_CONTEXT: imr-32; Not Active = under 50% inhibition at 10 µM
VALUE_TYPE: IC50

Oc1ncnc2[nH]ncc12; Not Active
CO[C@@H]1[C@@H](OC)[C@H](C)[C@@](O)(CC(=O)O)O[C@H]1[C@H](C)[C@H]1O[C@@]2(CC[C@@](C)([C@H]3CC[C@@](C)([C@@H]4O[C@@H]([C@H]5O[C@](C)(O)[C@H](C)C[C@@H]5C)C[C@@H]4O[C@@H]4C[C@H](OC)[C@@H](OC)[C@H](C)O4)O3)O2)C[C@H](O)[C@H]1C.N; Not Active
CC[C@H](C)C(=O)O[C@H]1CCC=C2C=C[C@H](C)[C@H](CC[C@@H]3C[C@@H](O)CC(=O)O3)[C@H]21; Not Active
